Biological target: UniProt Q9FD53
Sequence (Q9FD53 entry or part of it): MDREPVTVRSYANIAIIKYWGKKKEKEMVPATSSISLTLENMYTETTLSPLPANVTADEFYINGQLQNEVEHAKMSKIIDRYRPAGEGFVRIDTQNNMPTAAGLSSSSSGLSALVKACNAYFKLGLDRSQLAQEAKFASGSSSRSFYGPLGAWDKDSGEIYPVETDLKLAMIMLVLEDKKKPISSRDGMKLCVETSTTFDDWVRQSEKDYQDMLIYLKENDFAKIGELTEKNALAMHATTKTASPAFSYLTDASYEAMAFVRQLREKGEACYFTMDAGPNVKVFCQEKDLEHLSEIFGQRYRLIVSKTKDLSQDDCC
reported property: Ki

Tell me Ki reported for O=C(O)CC(O)(CCOP(=O)(O)OP(=O)(O)O)C(F)(F)F (stereo not shown) [F3-DPM]
50 nM

###

Target: mevalonate kinase (MK) (Streptococcus pneumoniae)
Sequence (A0A0H2UNK6 entry or part of it): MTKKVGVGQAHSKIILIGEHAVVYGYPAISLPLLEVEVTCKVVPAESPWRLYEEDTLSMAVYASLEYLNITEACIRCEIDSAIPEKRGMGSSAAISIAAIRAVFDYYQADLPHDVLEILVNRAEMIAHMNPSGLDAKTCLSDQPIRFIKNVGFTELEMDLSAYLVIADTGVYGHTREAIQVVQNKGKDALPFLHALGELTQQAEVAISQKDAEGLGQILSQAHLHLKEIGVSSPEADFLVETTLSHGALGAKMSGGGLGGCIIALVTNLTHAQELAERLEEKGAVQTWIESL
Experiment: Equilibrium binding of DPM to MK
Details: affinity of DPM for ternary (E.AMPPNP.mev) form of the enzyme, ternary (E.AMPPNP.mev)
reported property: Kd (nM)
Number in nM, nothing else.

Please report Kd with mevalonate kinase (MK) (Streptococcus pneumoniae) for item C[C@@](O)(CCOP(=O)(O)OP(=O)(O)O)CC(=O)O [DPM, Diphosphomevalonate] .
530

###

Target: mevalonate kinase (MK) (Streptococcus pneumoniae)
Experiment: Equilibrium binding of DPM to MK
Details: Kd DPM, quoted for the NMR titration of MK
reported property: pKd
pKd here is simply -log10 of the concentration when that concentration is written in mol/L.

Tell me pKd reported for C[C@@](O)(CCOP(=O)(O)OP(=O)(O)O)CC(=O)O [DPM, Diphosphomevalonate]
6.30

Just for reference, patent US8710032B2 is where these values come from.
